The reported numbers originate from ChEMBL document CHEMBL1145055.

# Study target: Cathepsin K (Homo sapiens, UniProt P43235)
# Sequence (P43235 whole entry): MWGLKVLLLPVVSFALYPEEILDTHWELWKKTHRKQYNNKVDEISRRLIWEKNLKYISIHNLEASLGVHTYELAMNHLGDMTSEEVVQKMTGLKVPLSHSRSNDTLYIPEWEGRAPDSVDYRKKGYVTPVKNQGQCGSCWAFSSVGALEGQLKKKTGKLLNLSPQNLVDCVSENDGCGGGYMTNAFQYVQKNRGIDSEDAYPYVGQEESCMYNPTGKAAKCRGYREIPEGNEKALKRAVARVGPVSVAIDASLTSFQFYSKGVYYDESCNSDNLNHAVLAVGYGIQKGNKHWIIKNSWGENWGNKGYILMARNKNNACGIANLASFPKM
Measure name: IC50 (nM)

Query :: Looking for the measured IC50 of CC(C)CC(C(=O)NCC#N)c1cccc(-c2ccc(C3CNCCN3)cc2)c1 (stereo in doubt; 43) , can you help?
Result :: 216

Query :: # repeat for CC(C)CC(C(=O)NCC#N)c1cccc(-c2ccc(C3CNCCN3)cc2)c1 (stereo in doubt; 44)
Result :: 58

Query :: # repeat for CC(C)CC(C(=O)NCC#N)c1cccc(-c2ccc(C3=CCNCC3)cc2)c1 (stereo not given)
Result :: 57

a: CC(=O)CN1CCN(c2ccc(-c3cccc(C(CC(C)C)C(=O)NCC#N)c3)cc2)CC1 (stereo not given)
b: CC(C)CC(C(=O)N(CC#N)OC(=O)C(F)(F)F)c1cccc(-c2ccncc2)c1 (stereo not given)
Query :: Please compare: a and b . Report which one has the smaller IC50 value. Please reply using the label of the selected record.
Result :: a

###

Listed here: compounds with reported IC50 for UniProtKB P07711.
Sequence (P07711 whole entry): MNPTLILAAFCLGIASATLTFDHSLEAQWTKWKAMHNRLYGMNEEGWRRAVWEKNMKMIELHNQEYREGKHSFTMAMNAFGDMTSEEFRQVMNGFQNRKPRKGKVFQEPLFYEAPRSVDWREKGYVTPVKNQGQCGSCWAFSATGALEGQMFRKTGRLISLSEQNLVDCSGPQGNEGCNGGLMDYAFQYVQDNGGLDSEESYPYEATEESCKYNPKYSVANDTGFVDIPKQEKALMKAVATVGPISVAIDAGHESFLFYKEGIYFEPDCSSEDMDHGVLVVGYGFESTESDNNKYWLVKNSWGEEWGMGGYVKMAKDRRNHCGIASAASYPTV
Measure name: IC50 (µM)

Query :: Looking for the measured IC50 of CC(C)CC(C(=O)NCC#N)c1cccc(-c2ccc(N3CCN(C(C)(C)C)CC3)cc2)c1 (stereo not drawn) , can you help?
Result :: 1.67

Query :: # repeat for CC(C)CC(C(=O)NCC#N)c1cccc(-c2ccc(N3CCN(CCO)CC3)cc2)c1 (stereo not drawn)
Result :: 0.14

Query :: # repeat for CC(C)CC(C(=O)NCC#N)c1cccc(-c2ccc(N3CCN(CC(C)(C)O)CC3)cc2)c1 (stereo not drawn)
Result :: 9.55

Query :: # repeat for CC(C)CC(C(=O)NCC#N)c1cccc(-c2ccc(C34CCN(CC3)CC4)cc2)c1 (stereo not drawn)
Result :: 2.24

Query :: # repeat for CC(C)CC(C(=O)NCC#N)c1cccc(-c2ccc(C3=CCNCC3)cc2)c1 (stereo not drawn)
Result :: 1.68

P: CC(C)CC(C(=O)NCC#N)c1cccc(-c2ccc(C3CNCCO3)cc2)c1 (stereo not drawn)
Q: CC(C)CC(C(=O)N(CC#N)OC(=O)C(F)(F)F)c1cccc(-c2ccncc2)c1 (stereo not drawn)
R: CC(C)CC(C(=O)NCC#N)c1cccc(-c2ccccc2)c1 (stereo not drawn)
Query :: // smallest IC50 at index 0, largest at the end Give the order by naming the labels one after another as requested.
Result :: R, P, Q

###

Listed here: molecules with reported IC50 for Cathepsin B (Homo sapiens).

Record excerpt, results attached:
Query :: Looking for the measured IC50 of CC(C)CC(C(=O)NCC#N)c1cccc(-c2cncnc2)c1 (stereo not given) , can you help?
Result :: > 10 µM

Query :: # repeat for CC(C)CC(C(=O)NCC#N)c1cccc(-c2ccc3[nH]ccc3c2)c1 (racemic)
Result :: > 10 µM

---
Query :: Looking for the measured IC50 of CC(C)CC(C(=O)NCC#N)c1cccc(-c2ccc(C3CNCCN3)cc2)c1 (stereo in doubt; 44) , can you help?
Result :: 1.25 µM

Query :: # repeat for CC(C)CC(C(=O)NCC#N)c1cccc(-c2ccccn2)c1 (stereo not given)
Result :: > 10 µM

Query :: # repeat for CN1CCN(c2ccc(-c3cccc(C(Cc4ccccc4)C(=O)NCC#N)c3)cc2)CC1 (stereo not given)
Result :: > 10 µM

###

Known pIC50 of a selection of compounds
# Study target: Cathepsin B (Homo sapiens)
# Procedure summary: In vitro inhibitory activity against human cathepsin B, using 2 uM of Z -Leu-Arg-AMC as substrate
Formally, pIC50 is defined as -log10 of the concentration c, with c in mol/L.

Query :: Looking for the measured pIC50 of CC(C)CC(C(=O)NCC#N)c1cccc(-c2ccc(C34CCN(CC3)CC4)cc2)c1 (stereo not given) , can you help?
Result :: 5.65

---
Query :: Looking for the measured pIC50 of CN1CCN(c2ccc(-c3cccc(C(CC4CCC4)C(=O)NCC#N)c3)cc2)CC1 (stereo not given) , can you help?
Result :: 5.09

###

# Study target: Cathepsin K (Homo sapiens, UniProt P43235)
# Procedure summary: In vitro inhibitory activity against Human Cathepsin K using 2 uM of Z -Leu-Arg-AMC as substrate
Measure name: pKi
Formally, pKi is defined as -log10 of the concentration c, with c in mol/L.

Query :: Value wanted: pKi (Cathepsin K (Homo sapiens, UniProt P43235)) of entry CC(C)CC(C(=O)NC1(C#N)CC1)c1cccc(-c2ccc(N3CCNCC3)cc2)c1 (stereo unspecified)
Result :: 8.00

###

# Study target: Cathepsin B (Homo sapiens)
pIC50: −log10 of the molar value.
Measure name: pIC50

Query :: Looking for the measured pIC50 of CC(C)CC(C(=O)NCC#N)c1cccc(-c2ccc(-c3ccncc3)cc2)c1 (stereo not given) , can you help?
Result :: 5.48

Query :: # repeat for CC(C)CC(C(=O)NCC#N)c1cccc(-c2ccc(C3=CCNCC3)cc2)c1 (stereo not given)
Result :: 6.26

Query :: # repeat for CC(C)CC(C(=O)NCC#N)c1cccc(-c2ccc(N3CCN(CCO)CC3)cc2)c1 (stereo not given)
Result :: 5.48

Query :: # repeat for CC(C)CC(C(=O)NCC#N)c1cccc(-c2ccc(N3CCN(CC(C)(C)O)CC3)cc2)c1 (stereo not given)
Result :: 5.20

Query :: # repeat for CC(C)CC(C(=O)NCC#N)c1cccc(-c2ccc(N3CCNCC3)cc2)c1 (racemic)
Result :: 5.62

###

# Study target: UniProt:P07711
# Procedure summary: In vitro inhibitory activity against human cathepsin L, using 2 uM of Z -Leu-Arg-AMC as substrate
pIC50: −log10 of the molar value.
Measure name: pIC50

I: CC(C)CC(C(=O)NCC#N)c1cccc(-c2ccc(N3CCN(C)CC3)cc2)c1 (racemic)
II: CC(C)CC(C(=O)NCC#N)c1cccc(-c2ccc(C3CNCCN3)cc2)c1 (stereo in doubt; 44)
Query :: // max by pIC50 over [ I , II ] Please reply using the label of the selected record.
Result :: II

###

# Study target: Cathepsin S (Homo sapiens, UniProt P25774)
# Sequence (P25774 whole entry): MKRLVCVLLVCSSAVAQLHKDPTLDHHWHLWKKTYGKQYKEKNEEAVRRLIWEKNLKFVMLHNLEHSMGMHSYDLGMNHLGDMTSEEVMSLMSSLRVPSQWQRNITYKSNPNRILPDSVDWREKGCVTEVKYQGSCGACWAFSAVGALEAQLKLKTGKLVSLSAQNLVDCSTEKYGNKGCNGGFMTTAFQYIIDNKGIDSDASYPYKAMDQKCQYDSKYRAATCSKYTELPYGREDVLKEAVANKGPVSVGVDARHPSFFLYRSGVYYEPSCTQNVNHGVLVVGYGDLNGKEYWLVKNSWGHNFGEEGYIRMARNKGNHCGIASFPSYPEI
Measure name: IC50 (nM)

Record excerpt, results attached:
Query :: Looking for the measured IC50 of CC(=O)CN1CCN(c2ccc(-c3cccc(C(CC(C)C)C(=O)NCC#N)c3)cc2)CC1 (stereo not given) , can you help?
Result :: 2360

Query :: # repeat for CC(C)C[C@@H](C(=O)NCC#N)c1cccc(-c2ccc(N3CCNCC3)cc2)c1
Result :: 2010

Query :: # repeat for CC(C)CC(C(=O)NCC#N)c1cccc(-c2cccnc2)c1 (stereo not given)
Result :: 8040

Query :: # repeat for CC(C)CC(C(=O)N(CC#N)OC(=O)C(F)(F)F)c1cccc(-c2ccncc2)c1 (stereo not given)
Result :: 1750

Query :: # repeat for CC(C)CC(C(=O)NCC#N)c1cccc(-c2ccc(C3=CCNCC3)cc2)c1 (stereo not given)
Result :: 652

Query :: # repeat for CC(C)CC(C(=O)NCC#N)c1cccc(-c2ccc(N3CCNCC3)cc2)c1 (racemic)
Result :: 1240

Query :: # repeat for CC(C)CC(C(=O)NCC#N)c1cccc(-c2ccc(N3CCN(C)CC3)cc2)c1 (racemic)
Result :: 1690

Query :: # repeat for CC(C)CC(C(=O)NCC#N)c1cccc(-c2ccc(N3CCN(CC(C)(C)N)CC3)cc2)c1 (stereo not given)
Result :: 1430

1: CC(C)CC(C(=O)NCC#N)c1cccc(-c2ccc(N3CCN(CCO)CC3)cc2)c1 (stereo not given)
2: CC(C)CC(C(=O)NCC#N)c1cccc(-c2ccc(-c3ccncc3)cc2)c1 (stereo not given)
Query :: // max by IC50 over [ 1 , 2 ] Please reply using the label of the selected record.
Result :: 2
(2: 1360 nM, 1: 609 nM)

###

# Study target: Cathepsin K (Homo sapiens, UniProt P43235)
pIC50: −log10 of the molar value.
Measure name: pIC50

Record excerpt, results attached:
Query :: Value wanted: pIC50 (Cathepsin K (Homo sapiens, UniProt P43235)) of entry CCCC(C(=O)NCC#N)c1cccc(-c2ccc(N3CCN(C)CC3)cc2)c1 (configuration not stated)
Result :: 7.06

Query :: # repeat for CC(C)CC(C(=O)NCC#N)c1cccc(-c2ccc(N3CCN(C(=O)OC(C)(C)C)CC3)cc2)c1 (configuration not stated)
Result :: 6.04

Query :: # repeat for CN1CCN(c2ccc(-c3cccc(C(CC4CC4)C(=O)NCC#N)c3)cc2)CC1 (configuration not stated)
Result :: 7.19

P: CC(C)CC(C(=O)NCC#N)c1cccc(-c2ccc(S(C)(=O)=O)cc2)c1 (configuration not stated)
Q: CC[C@H](C)CC(C(=O)NCC#N)c1cccc(-c2ccc(N3CCN(C)CC3)cc2)c1 (some centres not stated)
Query :: Please compare: P and Q . Report which one has the smaller pIC50 value. Please reply using the label of the selected record.
Result :: P

I: CC(C)CC(C(=O)NCC#N)c1cccc(-c2ccc(C(N)=O)cc2)c1 (configuration not stated)
II: CC(C)CC(C(=O)NCC#N)c1cccc(-c2ccc3[nH]ccc3c2)c1 (racemic)
Query :: // max by pIC50 over [ I , II ] Please reply using the label of the selected record.
Result :: II
(II: 7.28, I: 5.99)
